The measurements presented in this section are drawn from paper PMC11324046.

- Assay Summary: WST-1 proliferation assay, MOLT-4
- Type: cell-based
- Condition Context: human, MOLT-4 cells (acute lymphoblastic leukemia), vs 0.1% DMSO control = 100%, mean ± standard deviation
Classify: fulfilled when viability at 48 h, 100 µM is strictly less than 70%; not fulfilled when viability at 48 h, 100 µM is not.

* NCCCNCCS [WR1065, reference compound] | fulfilled
* O=[N+]([O-])c1ccc(OCC(O)CN2CCN(CCO)CC2)c(F)c1 (stereo not shown) [Compound 3] | not fulfilled
* OCCN1CCN(CC(O)COc2cccc(Cl)c2)CC1 (stereo not shown) [Compound 6] | not fulfilled
* OCCN1CCN(CC(O)COc2ccc(F)cc2)CC1 (stereo not shown) [Compound 4] | not fulfilled
* OCCN1CCN(CC(O)COc2ccc(Oc3ccc(F)cc3)cc2)CC1 (stereo not shown) [Compound 7] | fulfilled
* O=[N+]([O-])c1cc(OCC(O)CN2CCN(CCO)CC2)ccc1Cl (stereo not shown) [Compound 5] | not fulfilled
* COc1ccc(OCC(O)CN2CCN(CCO)CC2)c([N+](=O)[O-])c1 (stereo not shown) [Compound 2] | not fulfilled
* COc1cc([N+](=O)[O-])ccc1OCC(O)CN1CCN(CCO)CC1 (stereo not shown) [Compound 1] | not fulfilled
* OCCN1CCN(CC(O)COc2cc(Cl)c(Cl)cc2Cl)CC1 (stereo not shown) [Compound 8] | fulfilled

====

- Assay Summary: in vitro
- Condition Context: male, human
Quick reference: viability at 48 h, 500 µM of the listed items.
Attribute Measured: viability at 48 h, 500 µM (%)

* OCCN1CCN(CC(O)COc2ccc(F)cc2)CC1 (stereo not shown) | 110
* OCCN1CCN(CC(O)COc2cccc(Cl)c2)CC1 (stereo not shown) | 94
* NCCCNCCS [WR1065, reference compound] | 27
* COc1ccc(OCC(O)CN2CCN(CCO)CC2)c([N+](=O)[O-])c1 (stereo not shown) | 93
* O=[N+]([O-])c1ccc(OCC(O)CN2CCN(CCO)CC2)c(F)c1 (stereo not shown) | 92
* O=[N+]([O-])c1cc(OCC(O)CN2CCN(CCO)CC2)ccc1Cl (stereo not shown) | 79
* COc1cc([N+](=O)[O-])ccc1OCC(O)CN1CCN(CCO)CC1 (stereo not shown) | 97

====

- Assay Summary: Ex vivo cytotoxicity on PBMCs, MTS colorimetric assay
- Condition Context: male, human, peripheral blood mononuclear cells (PBMCs)
- Experimental: To represent the overall inhibitory activity of each compound, viability was calculated as the mean of at least three independent measurements. The purpose was to determine the optimal non-toxic concentration for subsequent use in radioprotection tests. Whole blood from a healthy donor was diluted 1 : 1 with Dulbecco's phosphate buffered saline (Sigma-Aldrich, St. Louis, MO, USA). […] At the end, the cells were counted using Türk's solution. […]
Attribute Measured: viability at 48 h, 50 µM (%)

* NCCCNCCSP(=O)(O)O [WR2721, amifostine, reference compound] | 37

====

- Assay Summary: Ex vivo cytotoxicity on PBMCs, MTS colorimetric assay
- Condition Context: male, human, peripheral blood mononuclear cells (PBMCs)
Attribute Measured: viability at 48 h, 100 µM

- NCCCNCCSP(=O)(O)O [WR2721, amifostine, reference compound]: 33%

====

Entries and their measured viability at 48 h, 10 µM follow.
- Assay Summary: in vitro
- Condition Context: male, human
Attribute Measured: viability at 48 h, 10 µM

• COc1cc([N+](=O)[O-])ccc1OCC(O)CN1CCN(CCO)CC1 (stereo not shown) = 114%
• OCCN1CCN(CC(O)COc2ccc(F)cc2)CC1 (stereo not shown) = 104%
• NCCCNCCS [WR1065, reference compound] = 57%
• O=[N+]([O-])c1cc(OCC(O)CN2CCN(CCO)CC2)ccc1Cl (stereo not shown) = 121%
• OCCN1CCN(CC(O)COc2cccc(Cl)c2)CC1 (stereo not shown) = 94%
• O=[N+]([O-])c1ccc(OCC(O)CN2CCN(CCO)CC2)c(F)c1 (stereo not shown) = 98%
• COc1ccc(OCC(O)CN2CCN(CCO)CC2)c([N+](=O)[O-])c1 (stereo not shown) = 102%

====

- Assay Summary: Ex vivo cytotoxicity on PBMCs, MTS colorimetric assay
- Condition Context: male, human, peripheral blood mononuclear cells (PBMCs)
Attribute Measured: viability at 48 h, 10 µM (%)

• NCCCNCCSP(=O)(O)O [WR2721, amifostine, reference compound] = 93

====

- Assay Summary: WST-1 proliferation assay, Jurkat
- Format: cell-based
- Condition Context: human, Jurkat cells (acute T-cell leukemia), vs 0.1% DMSO control = 100%, mean ± standard deviation
Attribute Measured: viability at 48 h, 100 µM (%)

• COc1cc([N+](=O)[O-])ccc1OCC(O)CN1CCN(CCO)CC1 (stereo not drawn) [Compound 1] = 91
• O=[N+]([O-])c1ccc(OCC(O)CN2CCN(CCO)CC2)c(F)c1 (stereo not drawn) [Compound 3] = 92
• OCCN1CCN(CC(O)COc2cccc(Cl)c2)CC1 (stereo not drawn) [Compound 6] = 89

====

Form field: viability at 48 h, 100 µM (one value per entry).
- Assay Summary: WST-1 proliferation assay, MCF-7
- Assay type: cell-based
- Condition Context: human, MCF-7 cells (breast adenocarcinoma), vs 0.1% DMSO control = 100%, mean ± standard deviation
Attribute Measured: viability at 48 h, 100 µM (%)

* OCCN1CCN(CC(O)COc2ccc(Oc3ccc(F)cc3)cc2)CC1 (stereo not drawn) [Compound 7] | 7
* OCCN1CCN(CC(O)COc2cc(Cl)c(Cl)cc2Cl)CC1 (stereo not drawn) [Compound 8] | 41
* NCCCNCCSP(=O)(O)O [WR2721, amifostine, reference compound] | 7
* COc1cc([N+](=O)[O-])ccc1OCC(O)CN1CCN(CCO)CC1 (stereo not drawn) [Compound 1] | 100
* NCCCNCCS [WR1065, reference compound] | 2
* OCCN1CCN(CC(O)COc2cccc(Cl)c2)CC1 (stereo not drawn) [Compound 6] | 86
